Experiment: Pharmacokinetics after 30 min i.v. infusion, phase I trial in hepatocellular carcinoma patients
Type: in vivo, human
Conditions: human, plasma, iv; 1400 mg/m^2, 30 min i.v. infusion; read-out: CL (clearance) (converted)
recorded endpoint: clearance (mL/min)
Write the value in mL/min as a bare number.

Ask | Provide one value: measured clearance of `O=C(/C=C/c1cccc(S(=O)(=O)Nc2ccccc2)c1)NO`
Reply | 883

---

Assay: Pharmacokinetics after 30 min i.v. infusion, phase I trial in hepatocellular carcinoma patients
Assay type: in vivo, human
Details: human, plasma, iv; 600 mg/m^2, 30 min i.v. infusion; read-out: T1/2 (half-life at the elimination phase) (converted)
recorded endpoint: half-life (h)
Write the value in h as a bare number.

Ask | Provide one value: measured half-life of `O=C(/C=C/c1cccc(S(=O)(=O)Nc2ccccc2)c1)NO`
Reply | 3.54
